measurement.protocol: chemical genetic growth profiling, strain panel (AID 1159580);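 also: tested at 20 µM; growth read once vehicle control cultures reached saturation at 30 °C; 1 = growth at the plate median or of vehicle wells; lower values mean less growth of the strain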
experimental.parameters: S. cerevisiae deletion strains, growth OD, locus YER167W, strain BCK2, stronger effect = lower value
The whole screen tested about 5,500 compounds, of which about 2,000 (36%) were called active. Not shown: some 18% with an inconclusive outcome. Some of the results follow.
property: normalized growth

compound	readout.number
CC(C)CC1NC(=O)CNC1=O (configuration not stated)	1
CC(=O)O[C@H]1CCC2(C)C3=C(CCC2C1(C)C)[C@@]1(C)CC[C@@H](C(C)CCC=C(C)C)[C@]1(C)CC3 (some centres not stated)	1.03
COc1ccc2cc(CCC(C)=O)ccc2c1	0.92
C=C(C)C1CCC(C)(O)C2CC3OC3(C)C2C1 (configuration not stated)	1.01
COC(=O)/C(=C1\OC(=O)C(c2ccccc2)=C1O)c1ccccc1	0.999
Cc1c(C)c2c(c(C)c1O)CCC(C)(CCCC(C)CCCC(C)CCCC(C)C)O2 (configuration not stated)	1.01
CO[C@H]1CC(O[C@@H]2/C(C)=C/C[C@@H]3C[C@@H](C[C@]4(CC[C@H](C)[C@@H](C5CCCCC5)O4)O3)OC(=O)[C@@H]3C=C(C)/C(=N\O)[C@H]4OC/C(=C\C=C\[C@@H]2C)[C@]43O)O[C@@H](C)C1O (some centres not stated)	0.994
CC(C)=CCCC(C)C1CC[C@@]2(C)C3=C(CC[C@]12C)C1(C)CC[C@H](O)C(C)(C)C1CC3 (some centres not stated)	1.05
Nc1ccc(C(=O)O)cc1	1.01
CC12CCC(O)CC1CCC1C2[C@H](O)CC2(C)C(C3=CC(=O)OC3)CCC12O (some centres not stated)	1.04
Oc1c(Cl)cc(Cl)cc1Sc1cc(Cl)cc(Cl)c1O	0.996
CCC(C)C(=O)OC1[C@@H]2CC3=C4CC(=O)O[C@@H](c5ccoc5)[C@]4(C)CCC3[C@@](C)(C2=O)[C@@H](CC(=O)OC)C1(C)C (some centres not stated)	1
CC(C)=CCc1c2c(c3occ(-c4ccc(O)c(O)c4)c(=O)c3c1O)C=CC(C)(C)O2	0.545
CC(C)CC(NC(=O)OCC1c2ccccc2-c2ccccc21)C(=O)O (configuration not stated)	0.995
CC(C)=CCCC(C)[C@@H]1CC[C@]2(C)C3=C(CC[C@@]12C)C1(C)CC[C@H](O)C(C)(C)C1CC3 (some centres not stated)	1.08
CC(C)=CCc1c2c(c3occ(-c4ccc(O)cc4)c(=O)c3c1O)C=CC(C)(C)O2	0.896
CC(C)CCCC(C)C1CC[C@@]2(C)C3=C(CC[C@]12C)[C@@]1(C)CC[C@H](O)C(C)(C)C1CC3 (some centres not stated)	0.99

----------
measurement.protocol: chemical genetic growth profiling, strain panel (AID 1159580);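 also: tested at 20 µM; growth read once vehicle control cultures reached saturation at 30 °C; 1 = growth at the plate median or of vehicle wells; lower values mean less growth of the strain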
experimental.parameters: S. cerevisiae deletion strains, growth OD, locus YKL190W, strain CNB1, stronger effect = lower value
Screen size: about 5,500 compounds; about 2,000 (36%) were called active. Roughly 18% stayed inconclusive and do not appear here. The list shows a part of the results.
normalized growth for assorted compounds

compound	normalized growth
Cc1ccc2c(c1)C1(C)CCCC(C)(C(=O)O)C1CC2 (stereo not drawn)	0.989 (inactive)
CN[C@@H]1[C@H](O)[C@H](NC)[C@H]2O[C@@]3(O)C(=O)C[C@@H](C)O[C@H]3O[C@@H]2[C@H]1O	1 (inactive)
CC12CCC3C(CC3(C)C)C(C)(CCC1=O)O2 (stereo not drawn)	1.01 (inactive)
NC(Cn1ccc(=O)c(O)c1)C(=O)O (stereo not drawn)	1.01 (inactive)
Cc1cc(=O)n(-c2ccc([N+](=O)[O-])cc2)[nH]1	0.726 (active)
CC(C)CCCC(C)C1CCC2C3CC(=O)[C@H]4C[C@@H](O)CC[C@]4(C)C3CC[C@]12C (stereo partly drawn)	1.02 (inactive)
COc1c(C)c2c(c(C)c1Cl)Oc1c(Cl)c(OC)c(Cl)c(C)c1C(=O)O2	1.01 (inactive)
N#CC(c1ccccc1)N1CCCCC1 (stereo not drawn)	0.99 (inactive)
CNNC	1.02 (inactive)
CC(C)c1ccc2c(c1)CCC1[C@](C)(CN)CCC[C@]21C (stereo partly drawn)	0.211 (active)
NC1=NCCN1CC(=O)O	0.978 (inactive)
C=C1c2cccc(O)c2C(O)=C2C(=O)[C@]3(O)C(O)=C(C(N)=O)C(=O)[C@@H](N(C)C)[C@@H]3[C@@H](O)[C@H]12	0.992 (inactive)
N[C@@H](CCC(=O)N[C@@H](CS)C(=O)NCC(=O)O)C(=O)O	0.993 (inactive)
C[C@H]1c2cccc(O)c2C(O)=C2C(=O)[C@]3(O)C(O)=C(C(N)=O)C(=O)[C@@H](N(C)C)[C@@H]3[C@@H](O)[C@@H]21	0.988 (inactive)
CC(=O)OC1CCC2(C)C(CC(OC(C)=O)C3(C)C4=CC(=O)OC(c5ccoc5)C4(C)CCC23)C1(C)C (stereo not drawn)	0.977 (inactive)
NCC(N)C(=O)c1ccccc1 (stereo not drawn)	1.01 (inactive)
CC(=O)O[C@@H]1CC[C@@]2(C)C(C[C@@H](OC(C)=O)[C@@]3(C)C4=CC(=O)O[C@@H](c5ccoc5)[C@]4(C)CCC23)C1(C)C (stereo partly drawn)	1.02 (inactive)
CC(=O)O[C@@H]1CC2C(C)(C)[C@H](O)C=C[C@]2(C)C2CC[C@]3(C)C(=CC(=O)O[C@H]3c3ccoc3)[C@@]21C (stereo partly drawn)	1.01 (inactive)
CC(C)=CC1C(C(=O)O)C1(C)C (stereo not drawn)	0.991 (inactive)
COC(=O)c1c(OC)cc2c(c1C)Oc1c(Cl)c(O)c(Cl)c(C)c1C(=O)O2	0.911 (active)
CC1(C)CC2C1CC[C@]1(CBr)CCC3C(CC(=O)O)C(=O)O[C@@]32C1 (stereo partly drawn)	0.994 (inactive)
Clc1ccc(Sc2ncnc3ccsc23)cc1	0.863 (active)
CO[C@H]1CC(O[C@@H]2/C(C)=C/C[C@@H]3C[C@@H](C[C@]4(CC[C@H](C)[C@@H](C5CCCCC5)O4)O3)OC(=O)[C@@H]3C=C(C)/C(=N\O)[C@H]4OC/C(=C\C=C\[C@@H]2C)[C@]43O)O[C@@H](C)C1O (stereo partly drawn)	0.982 (inactive)
CC(C)CCCC(C)C1CCC2C3CC[C@H]4C[C@@H](O)CC[C@]4(C)C3CC[C@]12C (stereo partly drawn)	0.994 (inactive)
C=C1c2c(Cl)ccc(O)c2C(O)=C2C(=O)[C@]3(O)C(O)=C(C(N)=O)C(=O)[C@@H](N(C)C)[C@@H]3[C@@H](O)[C@H]12	0.979 (inactive)
CC(=O)O[C@@H]1C=C[C@@]2(C)C(C[C@@H](OC(C)=O)[C@@]3(C)C4=CC(=O)O[C@@H](c5ccoc5)[C@]4(C)CCC23)C1(C)C (stereo partly drawn)	1.01 (inactive)
Cc1ccc(Sc2ccc([N+](=O)[O-])cc2/C=C2\SC(=S)NC2=O)cc1	0.979 (inactive)
C=C(C)C1CCC(C)(O)C2CC3OC3(C)C2C1 (stereo not drawn)	1 (inactive)
Cc1c(C)c2c(c(C)c1O)CCC(C)(CCCC(C)CCCC(C)CCCC(C)C)O2 (stereo not drawn)	1 (inactive)
NC(N)=NC(N)=Nc1ccc2c(c1)OCCO2	0.994 (inactive)
CN(C)[C@@H]1C(=O)C(C(N)=O)=C(O)[C@@]2(O)C(=O)C3=C(O)c4c(O)cccc4[C@@](C)(O)[C@H]3[C@H](O)[C@@H]12	1.01 (inactive)
CC(=O)OCC(=O)[C@@]1(O)[C@H](C)CC2C3CCC4=CC(=O)C=C[C@]4(C)[C@@]3(F)[C@@H](O)C[C@@]21C (stereo partly drawn)	1.01 (inactive)
O=C1NC(O)=NC1(c1ccccc1)c1ccccc1	1.01 (inactive)
NNC(=S)Nc1ccc2c(c1)OCCO2	0.99 (inactive)
CC1=CC(=O)c2ccccc2C1=O	0.0475 (active)
COC(=O)c1c(C)c2c(c(C)c1O)OC(=O)c1c(C)c(Cl)c(O)c(Cl)c1O2	0.957 (inactive)
CN(C)c1ccc(O)c2c1C[C@H]1C[C@H]3[C@H](N(C)C)C(=O)C(C(N)=O)=C(O)[C@@]3(O)C(=O)C1=C2O	0.998 (inactive)
CC(C)CCCC(C)[C@H]1CCC2C3CC=C4C[C@@H](O)CC[C@]4(C)C3CC[C@@]21C (stereo partly drawn)	1.01 (inactive)
